assay.protocol: In vitro simulated gastrointestinal digestion (SGD, INFOGEST 2.0): concentration and bioaccessibility by UHPLC-DAD-MSn
particulars: controls (without enzymes); intestinal phase
observable: Concentration, intestinal phase (I) (µg/mL)
One number for each entry, in µg/mL.

molecule="O=C1C[C@@H](c2ccc(O)cc2)Oc2cc(O)cc(O)c21 [NAR, (+)-naringenin]" observable="Concentration, intestinal phase (I)" observed_value=246.82
molecule="O=c1c(-c2ccc(O)cc2)coc2cc(O)ccc12 [DAID, daidzein]" observable="Concentration, intestinal phase (I)" observed_value=25.20
molecule="C[C@@H]1O[C@@H](OC[C@H]2O[C@@H](Oc3c(-c4ccc(O)c(O)c4)oc4cc(O)cc(O)c4c3=O)[C@H](O)[C@@H](O)[C@@H]2O)[C@H](O)[C@H](O)[C@H]1O [RUT, rutin]" observable="Concentration, intestinal phase (I)" observed_value=285.21
molecule="C[C@@H]1O[C@@H](O[C@H]2[C@H](Oc3cc(O)c4c(c3)O[C@H](c3ccc(O)cc3)CC4=O)O[C@H](CO)[C@@H](O)[C@@H]2O)[C@H](O)[C@H](O)[C@H]1O [NARN, naringin]" observable="Concentration, intestinal phase (I)" observed_value=319.15
molecule="O=c1cc(-c2ccc(O)cc2)oc2cc(O)cc(O)c12 [APG, apigenin]" observable="Concentration, intestinal phase (I)" observed_value=14.78

Hello, I would appreciate it if you could give Concentration, intestinal phase (I) for each entry below.
1. O=C(O[C@@H]1Cc2c(O)cc(O)cc2O[C@@H]1c1cc(O)c(O)c(O)c1)c1cc(O)c(O)c(O)c1 [EGCG, epigallocatechin-3-O-gallate]
2. O=C(CCc1ccc(O)cc1)c1c(O)cc(O)cc1O [PH, phloretin]
3. O=c1c(O)c(-c2ccc(O)c(O)c2)oc2cc(O)cc(O)c12 [QUE, quercetin]

# output
1: 104.15; 2: 169.91; 3: 7.02

Record summary for Oc1cc(O)cc(O)c1 [PG, phloroglucinol] : reported Concentration, intestinal phase (I) = 4952.79
